Items are presented alongside their recorded viability, T/C.
Tested on: 855422-203-R-J1-PDC complex spheroid growth
Experiment: Anticancer human tumor 855422-203-R-J1-PDC patient-derived bladder carcinoma cell line growth inhibition [AhR]
Details: second compound 0.316 µM; first compound 0.000949 µM; stronger effect = lower value
Give the quantity in %, number only.

Solved cases below.
CC(C)CC(NC(=O)C(Cc1ccccc1)NC(=O)c1cnccn1)B(O)O (stereo not drawn) + Cc1ccccc1N=Nc1ccc(NC(=O)c2ccnn2C)c(C)c1; 118
CCc1c2c(nc3ccc(O)cc13)-c1cc3c(c(=O)n1C2)COC(=O)[C@]3(O)CC + Cc1ccccc1N=Nc1ccc(NC(=O)c2ccnn2C)c(C)c1; 98.3

// query What measured viability, T/C goes with CC(C)CC(NC(=O)C(Cc1ccccc1)NC(=O)c1cnccn1)B(O)O (stereo not drawn) + Cc1cncc(-c2nc(NCCc3c[nH]c4ccccc34)c3ncn(C(C)C)c3n2)c1 ?
// result 103

====

Tested on: 855422-203-R-J1-PDC complex spheroid growth
Assay: Anticancer human tumor 855422-203-R-J1-PDC cell line growth inhibition [AhR]
Details: second compound 10 µM; first compound 3.16 µM; stronger effect = lower value
Lab note: anything with viability, T/C below 10% is marked MET; values at 10% or higher are marked NOT MET.

O=C(C=Cc1cccc(S(=O)(=O)Nc2ccccc2)c1)NO + Cc1cncc(-c2nc(NCCc3c[nH]c4ccccc34)c3ncn(C(C)C)c3n2)c1; MET
NS(=O)(=O)OCC1CC(n2ccc3c(NC4CCc5ccccc54)ncnc32)CC1O (stereo not given) + CC(CO)NC(=O)c1cc(-c2ccc(Cl)cc2)nn(-c2cnn(C)c2)c1=O; NOT MET
O=C(c1cc(Cc2n[nH]c(=O)c3ccccc23)ccc1F)N1CCN(C(=O)C2CC2)CC1 + CC(CO)NC(=O)c1cc(-c2ccc(Cl)cc2)nn(-c2cnn(C)c2)c1=O; NOT MET
COc1ccc([C@@H](O)c2cc(-c3ncnc4cc(N5CCOCC5)ccc34)c(F)cc2Cl)nn1 + CC(CO)NC(=O)c1cc(-c2ccc(Cl)cc2)nn(-c2cnn(C)c2)c1=O; NOT MET

# input for lookup
// query A record lists COc1ccc([C@@H](O)c2cc(-c3ncnc4cc(N5CCOCC5)ccc34)c(F)cc2Cl)nn1 + Cc1cncc(-c2nc(NCCc3c[nH]c4ccccc34)c3ncn(C(C)C)c3n2)c1 . Is its viability, T/C below 10%?
// result MET

====

Let's look at some molecules and their measured viability, T/C.
Test system: 855422-203-R-J1-PDC complex spheroid growth
Assay: Anticancer human tumor 855422-203-R-J1-PDC cell line growth inhibition [AhR]
Details: second compound 0.316 µM; first compound 0.0316 µM; stronger effect = lower value
Give the value in % but do not write % after it.

Use the examples below as a reference point.
COc1ccc([C@@H](O)c2cc(-c3ncnc4cc(N5CCOCC5)ccc34)c(F)cc2Cl)nn1 + Cc1ccccc1N=Nc1ccc(NC(=O)c2ccnn2C)c(C)c1; 107
O=C(C=Cc1cccc(S(=O)(=O)Nc2ccccc2)c1)NO + CC(CO)NC(=O)c1cc(-c2ccc(Cl)cc2)nn(-c2cnn(C)c2)c1=O; 89.1
O=C(c1cc(Cc2n[nH]c(=O)c3ccccc23)ccc1F)N1CCN(C(=O)C2CC2)CC1 + Cc1cncc(-c2nc(NCCc3c[nH]c4ccccc34)c3ncn(C(C)C)c3n2)c1; 102

// query viability, T/C lookup needed for COc1cc(C2c3cc4c(cc3C(OC3OC5COC(C)OC5C(O)C3O)C3COC(=O)C23)OCO4)cc(OC)c1O (stereo unspecified) + Cc1ccccc1N=Nc1ccc(NC(=O)c2ccnn2C)c(C)c1 , thanks.
// result 93.7

// query Would you kindly share the measured viability, T/C for Nc1ccn(C2OC(CO)C(O)C2(F)F)c(=O)n1 (stereo unspecified) + CC(CO)NC(=O)c1cc(-c2ccc(Cl)cc2)nn(-c2cnn(C)c2)c1=O ?
// result 88.4

// query Would you mind telling me what viability, T/C value was observed for CC1(C)CCC(CN2CCN(c3ccc(C(=O)NS(=O)(=O)c4ccc(NCC5CCOCC5)c([N+](=O)[O-])c4)c(Oc4cnc5[nH]ccc5c4)c3)CC2)=C(c2ccc(Cl)cc2)C1 + Cc1cncc(-c2nc(NCCc3c[nH]c4ccccc34)c3ncn(C(C)C)c3n2)c1 ?
// result 94.2

====

System: 855422-203-R-J1-PDC complex spheroid growth
Assay: Anticancer human tumor 855422-203-R-J1-PDC cell line growth inhibition [AhR];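 note: spheroids exposed to agents for seven days before readout; percent of DMSO vehicle control luminescence viability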
Details: second compound 10 µM; first compound 3.16 µM; stronger effect = lower value
Assay Readout: viability, T/C (%)
State just the number; it will be interpreted in %.

Observe how each entry below is paired with its result.
CC1(C)CCC(CN2CCN(c3ccc(C(=O)NS(=O)(=O)c4ccc(NCC5CCOCC5)c([N+](=O)[O-])c4)c(Oc4cnc5[nH]ccc5c4)c3)CC2)=C(c2ccc(Cl)cc2)C1 + Cc1cncc(-c2nc(NCCc3c[nH]c4ccccc34)c3ncn(C(C)C)c3n2)c1; 24.5
CC1COCCN1c1cc(C2(S(C)(=N)=O)CC2)nc(-c2ccnc3[nH]ccc23)n1 (stereo not given) + Cc1ccccc1N=Nc1ccc(NC(=O)c2ccnn2C)c(C)c1; 82
O=C(c1cc(Cc2n[nH]c(=O)c3ccccc23)ccc1F)N1CCN(C(=O)C2CC2)CC1 + Cc1cncc(-c2nc(NCCc3c[nH]c4ccccc34)c3ncn(C(C)C)c3n2)c1; 6.34
COc1cc(C2c3cc4c(cc3C(OC3OC5COC(C)OC5C(O)C3O)C3COC(=O)C23)OCO4)cc(OC)c1O (stereo not given) + Cc1ccccc1N=Nc1ccc(NC(=O)c2ccnn2C)c(C)c1; 13.7

Query compound follows.
// query Please look up its viability, T/C: COc1cccc2c1C(=O)c1c(O)c3c(c(O)c1C2=O)CC(O)(C(=O)CO)CC3OC1CC(N)C(O)C(C)O1 (stereo not given) + CC(CO)NC(=O)c1cc(-c2ccc(Cl)cc2)nn(-c2cnn(C)c2)c1=O
// result 0.94

====

Test system: 855422-203-R-J1-PDC complex spheroid growth
Assay: Anticancer human tumor 855422-203-R-J1-PDC cell line growth inhibition [AhR]; active means viability on the fitted dose curve at most 10% of control; inactive means the rest;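 note: spheroids exposed to agents for seven days before readout; percent of DMSO vehicle control luminescence viability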
Conditions: second compound 0.1 µM; first compound 1 µM
Use one of these outcomes when replying: active, inactive

Recorded results for 2 compounds are shown here.
COc1cccc2c1C(=O)c1c(O)c3c(c(O)c1C2=O)CC(O)(C(=O)CO)CC3OC1CC(N)C(O)C(C)O1 (stereo not drawn) + Cc1cncc(-c2nc(NCCc3c[nH]c4ccccc34)c3ncn(C(C)C)c3n2)c1; active
Nc1ccn(C2OC(CO)C(O)C2(F)F)c(=O)n1 (stereo not drawn) + CC(CO)NC(=O)c1cc(-c2ccc(Cl)cc2)nn(-c2cnn(C)c2)c1=O; inactive

// query Recorded test outcome, item Nc1ccn(C2OC(CO)C(O)C2(F)F)c(=O)n1 (stereo not drawn) + Cc1ccccc1N=Nc1ccc(NC(=O)c2ccnn2C)c(C)c1
// result inactive

====

System: 855422-203-R-J1-PDC complex spheroid growth
Experiment: Anticancer human tumor 855422-203-R-J1-PDC cell line growth inhibition [AhR];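 note: spheroids exposed to agents for seven days before readout; percent of DMSO vehicle control luminescence viability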
Conditions: second compound 3.16 µM; first compound 3 µM; stronger effect = lower value
Overview of reported viability, T/C across a group of molecules:
Field format: number, assumed %, no unit text.

Consider the following illustrative entries.
CCN(c1cc(-c2ccc(CN3CCOCC3)cc2)cc(C(=O)NCc2c(C)cc(C)[nH]c2=O)c1C)C1CCOCC1 + Cc1cncc(-c2nc(NCCc3c[nH]c4ccccc34)c3ncn(C(C)C)c3n2)c1; 66.3
CCN(c1cc(-c2ccc(CN3CCOCC3)cc2)cc(C(=O)NCc2c(C)cc(C)[nH]c2=O)c1C)C1CCOCC1 + Cc1ccccc1N=Nc1ccc(NC(=O)c2ccnn2C)c(C)c1; 82.3
O=C(C=Cn1cnc(-c2cc(C(F)(F)F)cc(C(F)(F)F)c2)n1)NNc1cnccn1 + Cc1cncc(-c2nc(NCCc3c[nH]c4ccccc34)c3ncn(C(C)C)c3n2)c1; 23.9
O=C(C=Cn1cnc(-c2cc(C(F)(F)F)cc(C(F)(F)F)c2)n1)NNc1cnccn1 + CC(CO)NC(=O)c1cc(-c2ccc(Cl)cc2)nn(-c2cnn(C)c2)c1=O; 28.6
CCN(c1cc(-c2ccc(CN3CCOCC3)cc2)cc(C(=O)NCc2c(C)cc(C)[nH]c2=O)c1C)C1CCOCC1 + CC(CO)NC(=O)c1cc(-c2ccc(Cl)cc2)nn(-c2cnn(C)c2)c1=O; 77.4

Now for the molecule whose viability, T/C we want.
// query Field request: viability, T/C | item: O=C(C=Cn1cnc(-c2cc(C(F)(F)F)cc(C(F)(F)F)c2)n1)NNc1cnccn1 + Cc1ccccc1N=Nc1ccc(NC(=O)c2ccnn2C)c(C)c1
// result 37.8

====

System: 855422-203-R-J1-PDC complex spheroid growth
Test: Anticancer human tumor 855422-203-R-J1-PDC cell line growth inhibition [AhR];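 note: spheroids exposed to agents for seven days before readout; percent of DMSO vehicle control luminescence viability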
Details: second compound 0.316 µM; first compound 0.01 µM; stronger effect = lower value
We begin with a simple list: items and their reported viability, T/C.
Quick reminder: number only, in %, skip the unit.

Nc1ncn(C2CC(O)C(CO)O2)c(=O)n1 (configuration not stated) + Cc1ccccc1N=Nc1ccc(NC(=O)c2ccnn2C)c(C)c1; 104
CC[C@@]1(O)C(=O)OCc2c1cc1n(c2=O)Cc2cc3c(CN(C)C)c(O)ccc3nc2-1 + Cc1ccccc1N=Nc1ccc(NC(=O)c2ccnn2C)c(C)c1; 97.2
CC1COCCN1c1cc(-c2ccnn2C)c2ccnc(-c3ccn[nH]3)c2n1 (configuration not stated) + CC(CO)NC(=O)c1cc(-c2ccc(Cl)cc2)nn(-c2cnn(C)c2)c1=O; 87.4
Cn1ncnc1C1c2n[nH]c(=O)c3cc(F)cc(c23)NC1c1ccc(F)cc1 (configuration not stated) + Cc1cncc(-c2nc(NCCc3c[nH]c4ccccc34)c3ncn(C(C)C)c3n2)c1; 88.5
Cn1ncnc1C1c2n[nH]c(=O)c3cc(F)cc(c23)NC1c1ccc(F)cc1 (configuration not stated) + Cc1ccccc1N=Nc1ccc(NC(=O)c2ccnn2C)c(C)c1; 96.1
CC1COCCN1c1cc(-c2ccnn2C)c2ccnc(-c3ccn[nH]3)c2n1 (configuration not stated) + Cc1ccccc1N=Nc1ccc(NC(=O)c2ccnn2C)c(C)c1; 107
Nc1ncn(C2CC(O)C(CO)O2)c(=O)n1 (configuration not stated) + Cc1cncc(-c2nc(NCCc3c[nH]c4ccccc34)c3ncn(C(C)C)c3n2)c1; 88.5
CC[C@@]1(O)C(=O)OCc2c1cc1n(c2=O)Cc2cc3c(CN(C)C)c(O)ccc3nc2-1 + CC(CO)NC(=O)c1cc(-c2ccc(Cl)cc2)nn(-c2cnn(C)c2)c1=O; 98.9

// query viability, T/C lookup needed for CC[C@@]1(O)C(=O)OCc2c1cc1n(c2=O)Cc2cc3c(CN(C)C)c(O)ccc3nc2-1 + Cc1cncc(-c2nc(NCCc3c[nH]c4ccccc34)c3ncn(C(C)C)c3n2)c1 , thanks.
// result 89.6

// query Quick one: viability, T/C of Cn1ncnc1C1c2n[nH]c(=O)c3cc(F)cc(c23)NC1c1ccc(F)cc1 (configuration not stated) + CC(CO)NC(=O)c1cc(-c2ccc(Cl)cc2)nn(-c2cnn(C)c2)c1=O ?
// result 107

// query Data request, read-out viability, T/C, for Nc1ncn(C2CC(O)C(CO)O2)c(=O)n1 (configuration not stated) + CC(CO)NC(=O)c1cc(-c2ccc(Cl)cc2)nn(-c2cnn(C)c2)c1=O
// result 90.3

// query Any idea what its viability, T/C is? The compound is CC1COCCN1c1cc(-c2ccnn2C)c2ccnc(-c3ccn[nH]3)c2n1 (configuration not stated) + Cc1cncc(-c2nc(NCCc3c[nH]c4ccccc34)c3ncn(C(C)C)c3n2)c1
// result 91.1
